target: Man(a1-3)[Man(a1-6)]Man; experiment: glycan array binding signal (z-score within array); higher = stronger binding; conditions: glycan notation: IUPAC condensed, linker removed
The entries come from a sample that favours the strongest signals as a whole.
quantity.kind: glycan array binding signal (z-score)
Lab note: jot the number down without any unit.

>>> assay_value("Mincle (Bos taurus) (protein) MNSSTSPASQTERRCFSFQLFSWAIAGTSILLLSACFITRCVVTYSIFQLCDEKKFQPPGDSMELSCYNDGSGSVKNCCPLKWFHFQSSCYLFSPDTMSWRASLKNCSSMGAHLVVINTQEEQEFLYYTKPRKKEFYIGLTDQVTEGQWQWVDGTPFTKSLSFWDAGEPNNLVIVEDCATIRDSSNPRQNWNDVPCFFNMFRVCEMPERKI")
6.16

Consider LSL-150 (Laetiporus sulphureus), Q7Z8V1 (protein) MTDIYIPPEGLYFRLLGFASRQVIFARNSPSPDVGLSPVNDQATDQYFSLIYGTGEHAGLYAIKSKATGKVLFSRRPAEPYVGQIDGDGRYPDNWFKIEPGKTYLSKYFRLVQPSTGTALVSRTHLQPYFWNHPQTEVFDDQYFTFLFEDHHHHHH . Its measured glycan array binding signal (z-score) is -0.2

glycan array binding signal (z-score) reported for this binder DGL (Dioclea grandiflora), P08902 (protein) ADTIVAVELDSYPNTDIGDPNYPHIGIDIKSIRSKSTARWNMQTGKVGTVHISYNSVAKRLSAVVSYSGSSSTTVSYDVDLNNVLPEWVRVGLSATTGLYKETNTILSWSFTSKLKTNSIADENSLHFSFHKFSQNPKDLILQGDAFTDSDGNLELTKVSSSGDPQGNSVGRALFYAPVHIWESSAVVASFDATFTFLIKSPDREPADGITFFIANTDTSIPSGSGGRLLGLFPDAN : 3.63

Sure, the documented glycan array binding signal (z-score) for ArathEULS3 (Arabidopsis thaliana), Q945P1 (protein) MEHHHQHHRHHQRDDGEDDRQSFGVPPPHVDAPPQPHGLYQSQPHFDPYAPTPQAPAPYRSETQFEPHAPPPYRSEPYFETPAPPPSFGHVSHVGHQSPNESYPPEHHRYGGYQQPSNSLLESHGDHSGVTHVAHHSSNQPQSSSGVYHKPDENRLPDNLAGLAGRATVKVYSKAEPNYNLTIRDGKVILAPADPSDEAQHWYKDEKYSTKVKDADGHPCFALVNKATGEAMKHSVGATHPVHLIRYVPDKLDESVLWTESKDFGDGYRTIRMVNNTRLNVDAYHGDSKSGGVRDGTTIVLWDWNKGDNQLWKIFPFILEQKLISEEDLNSAVDHHHHHH is -0.26

What the record says about SP15308F-bth-333-19-333 (Bacteroides thetaiotaomicron) (protein) SCNNEWESEQYVQMVSFKAPVNAQGVTPIYIRYKPEGKVTYQLPLIVSGSTMNSKDLNVHVGLDLDTLDVLNVEHFGSRKELFFKPLENKYYEFPETVQIPAGECTSLLPIDFALKDLDQVDKWVLPLAIQSNDPSHNYQANPRKFYRRAMLRISPFNDYSGQYSATAYKVYFKGNEKEAIVPEYHTSYVIDDKTIFFYAGLIDIDRLDRKYYKIKFEFTEEKIDLQTRKLKISSDNEDINLVVKGQPSYTVEEEMDATRPYLKHIYVTINNLEYEFTDYTSVPGYPLEYVVKGSLTMERKINTQIPDEDQAIEW : glycan array binding signal (z-score) is -0.694
